System: Escherichia coli TOP10;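 further: peptides expressed intracellularly from a pBAD plasmid library in pooled LB shake-flask culture, induced with 0.3% L-arabinose, DNA abundance read by NGS, three biological replicates, DESeq2 with apeglm shrinkage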
test_method_notes: shrunken log2 fold change of peptide-encoding DNA abundance (4.5 h post-induction vs induction); higher = less antimicrobial activity (less host growth inhibition)
stated_conditions: time post-induction: 4.5 h; library: site-saturation at positions 5, 18, 19, 20
Assign Satisfied whenever shrunken log2 fold change does not fall below -0.05; assign Not satisfied whenever it does.

Prompt: Kindly determine if shrunken log2 fold change recorded for "RRIRQRPPRLPRPRPRPQCVPRP" is above or exactly -0.05.
Response: Satisfied

Prompt: Kindly determine if shrunken log2 fold change recorded for "RRIRSRPPRLPRPRPRPQRYPRP" is above or exactly -0.05.
Response: Not satisfied

Prompt: Kindly determine if shrunken log2 fold change recorded for "RRIRWRPPRLPRPRPRPVLHPRP" is above or exactly -0.05.
Response: Satisfied

Prompt: Kindly determine if shrunken log2 fold change recorded for "RRIRQRPPRLPRPRPRPRRNPRP" is above or exactly -0.05.
Response: Satisfied

Prompt: Kindly determine if shrunken log2 fold change recorded for "RRIRKRPPRLPRPRPRPPLSPRP" is above or exactly -0.05.
Response: Satisfied

Prompt: Kindly determine if shrunken log2 fold change recorded for "RRIRARPPRLPRPRPRPGLVPRP" is above or exactly -0.05.
Response: Satisfied

Prompt: Kindly determine if shrunken log2 fold change recorded for "RRIRERPPRLPRPRPRPQRPPRP" is above or exactly -0.05.
Response: Satisfied

Prompt: Kindly determine if shrunken log2 fold change recorded for "RRIRRRPPRLPRPRPRPGGLPRP" is above or exactly -0.05.
Response: Satisfied

Prompt: Kindly determine if shrunken log2 fold change recorded for "RRIRGRPPRLPRPRPRPFSEPRP" is above or exactly -0.05.
Response: Satisfied

Prompt: Kindly determine if shrunken log2 fold change recorded for "RRIRERPPRLPRPRPRPSDVPRP" is above or exactly -0.05.
Response: Not satisfied

Prompt: Kindly determine if shrunken log2 fold change recorded for "RRIRRRPPRLPRPRPRPCVNPRP" is above or exactly -0.05.
Response: Not satisfied

Prompt: Kindly determine if shrunken log2 fold change recorded for "RRIRDRPPRLPRPRPRPWNWPRP" is above or exactly -0.05.
Response: Satisfied

Prompt: Kindly determine if shrunken log2 fold change recorded for "RRIRHRPPRLPRPRPRPNICPRP" is above or exactly -0.05.
Response: Not satisfied

Prompt: Kindly determine if shrunken log2 fold change recorded for "RRIRVRPPRLPRPRPRPYYNPRP" is above or exactly -0.05.
Response: Not satisfied

Prompt: Kindly determine if shrunken log2 fold change recorded for "RRIRWRPPRLPRPRPRPCQRPRP" is above or exactly -0.05.
Response: Satisfied

Prompt: Kindly determine if shrunken log2 fold change recorded for "RRIRCRPPRLPRPRPRPMFCPRP" is above or exactly -0.05.
Response: Not satisfied

Prompt: Kindly determine if shrunken log2 fold change recorded for "RRIRDRPPRLPRPRPRPSHKPRP" is above or exactly -0.05.
Response: Not satisfied

Prompt: Kindly determine if shrunken log2 fold change recorded for "RRIRDRPPRLPRPRPRPTVWPRP" is above or exactly -0.05.
Response: Satisfied

Prompt: Kindly determine if shrunken log2 fold change recorded for "RRIRARPPRLPRPRPRPRDFPRP" is above or exactly -0.05.
Response: Satisfied

Prompt: Kindly determine if shrunken log2 fold change recorded for "RRIRDRPPRLPRPRPRPASYPRP" is above or exactly -0.05.
Response: Not satisfied

Prompt: Kindly determine if shrunken log2 fold change recorded for "RRIRTRPPRLPRPRPRPLPRPRP" is above or exactly -0.05.
Response: Satisfied

Prompt: Kindly determine if shrunken log2 fold change recorded for "RRIRSRPPRLPRPRPRPMTIPRP" is above or exactly -0.05.
Response: Not satisfied

Prompt: Kindly determine if shrunken log2 fold change recorded for "RRIRVRPPRLPRPRPRPLFVPRP" is above or exactly -0.05.
Response: Not satisfied

Prompt: Kindly determine if shrunken log2 fold change recorded for "RRIRNRPPRLPRPRPRPMKIPRP" is above or exactly -0.05.
Response: Not satisfied

Prompt: Kindly determine if shrunken log2 fold change recorded for "RRIRIRPPRLPRPRPRPHQQPRP" is above or exactly -0.05.
Response: Not satisfied

Prompt: Kindly determine if shrunken log2 fold change recorded for "RRIRYRPPRLPRPRPRPLSCPRP" is above or exactly -0.05.
Response: Not satisfied

Prompt: Kindly determine if shrunken log2 fold change recorded for "RRIRARPPRLPRPRPRPNSTPRP" is above or exactly -0.05.
Response: Satisfied

Prompt: Kindly determine if shrunken log2 fold change recorded for "RRIRHRPPRLPRPRPRPLYCPRP" is above or exactly -0.05.
Response: Not satisfied

Prompt: Kindly determine if shrunken log2 fold change recorded for "RRIRSRPPRLPRPRPRPGPAPRP" is above or exactly -0.05.
Response: Satisfied

Prompt: Kindly determine if shrunken log2 fold change recorded for "RRIRHRPPRLPRPRPRPCREPRP" is above or exactly -0.05.
Response: Satisfied

Prompt: Kindly determine if shrunken log2 fold change recorded for "RRIRGRPPRLPRPRPRPGELPRP" is above or exactly -0.05.
Response: Satisfied

Prompt: Kindly determine if shrunken log2 fold change recorded for "RRIRIRPPRLPRPRPRPWLGPRP" is above or exactly -0.05.
Response: Satisfied

Prompt: Kindly determine if shrunken log2 fold change recorded for "RRIRARPPRLPRPRPRPVWMPRP" is above or exactly -0.05.
Response: Satisfied

Prompt: Kindly determine if shrunken log2 fold change recorded for "RRIRLRPPRLPRPRPRPYKKPRP" is above or exactly -0.05.
Response: Not satisfied

Prompt: Kindly determine if shrunken log2 fold change recorded for "RRIRPRPPRLPRPRPRPTMEPRP" is above or exactly -0.05.
Response: Satisfied

Prompt: Kindly determine if shrunken log2 fold change recorded for "RRIRMRPPRLPRPRPRPWFKPRP" is above or exactly -0.05.
Response: Not satisfied

Prompt: Kindly determine if shrunken log2 fold change recorded for "RRIRIRPPRLPRPRPRPYFNPRP" is above or exactly -0.05.
Response: Not satisfied

Prompt: Kindly determine if shrunken log2 fold change recorded for "RRIRIRPPRLPRPRPRPLMVPRP" is above or exactly -0.05.
Response: Not satisfied

Prompt: Kindly determine if shrunken log2 fold change recorded for "RRIRGRPPRLPRPRPRPGQAPRP" is above or exactly -0.05.
Response: Satisfied

Prompt: Kindly determine if shrunken log2 fold change recorded for "RRIRVRPPRLPRPRPRPTLDPRP" is above or exactly -0.05.
Response: Satisfied

Prompt: Kindly determine if shrunken log2 fold change recorded for "RRIRCRPPRLPRPRPRPRDWPRP" is above or exactly -0.05.
Response: Satisfied

Prompt: Kindly determine if shrunken log2 fold change recorded for "RRIRGRPPRLPRPRPRPIPPPRP" is above or exactly -0.05.
Response: Satisfied

Prompt: Kindly determine if shrunken log2 fold change recorded for "RRIRDRPPRLPRPRPRPGIKPRP" is above or exactly -0.05.
Response: Not satisfied

Prompt: Kindly determine if shrunken log2 fold change recorded for "RRIRCRPPRLPRPRPRPTGTPRP" is above or exactly -0.05.
Response: Satisfied

Prompt: Kindly determine if shrunken log2 fold change recorded for "RRIRHRPPRLPRPRPRPNKMPRP" is above or exactly -0.05.
Response: Not satisfied

Prompt: Kindly determine if shrunken log2 fold change recorded for "RRIRKRPPRLPRPRPRPFKIPRP" is above or exactly -0.05.
Response: Satisfied

Prompt: Kindly determine if shrunken log2 fold change recorded for "RRIRNRPPRLPRPRPRPFVQPRP" is above or exactly -0.05.
Response: Not satisfied

Prompt: Kindly determine if shrunken log2 fold change recorded for "RRIRTRPPRLPRPRPRPASTPRP" is above or exactly -0.05.
Response: Not satisfied

Prompt: Kindly determine if shrunken log2 fold change recorded for "RRIRWRPPRLPRPRPRPPRSPRP" is above or exactly -0.05.
Response: Satisfied

Prompt: Kindly determine if shrunken log2 fold change recorded for "RRIRSRPPRLPRPRPRPFVGPRP" is above or exactly -0.05.
Response: Not satisfied

Prompt: Kindly determine if shrunken log2 fold change recorded for "RRIRQRPPRLPRPRPRPHRMPRP" is above or exactly -0.05.
Response: Not satisfied

Prompt: Kindly determine if shrunken log2 fold change recorded for "RRIRHRPPRLPRPRPRPVMGPRP" is above or exactly -0.05.
Response: Satisfied

Prompt: Kindly determine if shrunken log2 fold change recorded for "RRIRMRPPRLPRPRPRPVYEPRP" is above or exactly -0.05.
Response: Satisfied

Prompt: Kindly determine if shrunken log2 fold change recorded for "RRIRLRPPRLPRPRPRPMSQPRP" is above or exactly -0.05.
Response: Not satisfied

Prompt: Kindly determine if shrunken log2 fold change recorded for "RRIRDRPPRLPRPRPRPDNYPRP" is above or exactly -0.05.
Response: Not satisfied

Prompt: Kindly determine if shrunken log2 fold change recorded for "RRIRSRPPRLPRPRPRPCVFPRP" is above or exactly -0.05.
Response: Not satisfied

Prompt: Kindly determine if shrunken log2 fold change recorded for "RRIRRRPPRLPRPRPRPLMWPRP" is above or exactly -0.05.
Response: Satisfied

Prompt: Kindly determine if shrunken log2 fold change recorded for "RRIRDRPPRLPRPRPRPKWAPRP" is above or exactly -0.05.
Response: Satisfied

Prompt: Kindly determine if shrunken log2 fold change recorded for "RRIRIRPPRLPRPRPRPLTWPRP" is above or exactly -0.05.
Response: Not satisfied

Prompt: Kindly determine if shrunken log2 fold change recorded for "RRIRGRPPRLPRPRPRPTEAPRP" is above or exactly -0.05.
Response: Satisfied

Prompt: Kindly determine if shrunken log2 fold change recorded for "RRIRSRPPRLPRPRPRPIWIPRP" is above or exactly -0.05.
Response: Not satisfied

Prompt: Kindly determine if shrunken log2 fold change recorded for "RRIRCRPPRLPRPRPRPDENPRP" is above or exactly -0.05.
Response: Satisfied

Prompt: Kindly determine if shrunken log2 fold change recorded for "RRIRYRPPRLPRPRPRPFKIPRP" is above or exactly -0.05.
Response: Satisfied
